TEST DETAILS: Modified ssRNA 5′-phosphate serum stability assay
Format: in vitro ADME
MEASUREMENT CONTEXT: 10 μM in 95% fresh mouse serum, 37° C., 0-24 h, LC/MS
Oligonucleotides are written 5' to 3', each unit as a sugar letter and its base; * is a phosphorothioate linkage, no mark a phosphodiester; rarer units and linkages stand in square brackets, end groups in braces. Plain capitals give the bases only. [DMAEAc-N] = 2'-O-dimethylaminoethyl acetamide sugar (N: the base); [5'R-Me-N] = (R)-5'-methyl-2'-deoxyribonucleoside (N: the base); e = 2'-O-(2-methoxyethyl) (MOE); {P} = phosphate; f = 2'-fluoro
For each entry below, report its T1/2 (h) of full length modified ssRNA having a 5′-terminal phosphate group value.
# answer = value followed by unit

As a guide, the following entries are already answered.
ISIS 422391: modified ssRNA, SEQ ID NO 06: P-TdUfGfUfCfUfCfUfGfGfUfCfCfUfUfAfCfUfUfAeAe; d = 2′-O-DMAEAc (antisense {P}-[DMAEAc-T]fUfGfUfCfUfCfUfGfGfUfCfCfU*fU*fA*fC*fU*fU*eA*eA; single-stranded RNA for RNAi) :: 6.5 h
ISIS 404320: modified ssRNA targeting PTEN, SEQ ID NO 05: P-UfUfGfUfCfUfCfUfGfGfUfCfCfUfUfAfCfUfUfAeAe (antisense {P}-fUfUfGfUfCfUfCfUfGfGfUfCfCfU*fU*fA*fC*fU*fU*eA*eA; single-stranded RNA for RNAi) :: 4 h
ISIS 398701: modified ssRNA, SEQ ID NO 09: P-USfUfGfUfCfUfCfUfGfGfUfCfCfUfUfAfCfUfUf (antisense UUGUCUCUGGUCCUUACUU; 5'-phosphate, 2'-fluoro, phosphorothioate, chemistry not fully specified) :: 18.2 h

Next up:
Give me measured T1/2 (h) of full length modified ssRNA having a 5′-terminal phosphate group, please, for this substance: ISIS 432356: modified ssRNA, SEQ ID NO 06: P-TRUfGfUfCfUfCfUfGfGfUfCfCfUfUfAfCfUfUfAeAe; R = (R)-5′-methyl-2′-deoxyribonucleoside (antisense {P}-[5'R-Me-T]fUfGfUfCfUfCfUfGfGfUfCfCfU*fU*fA*fC*fU*fU*eA*eA; single-stranded RNA for RNAi)
8.7 h
